- assayedTarget: Tyrosine-protein phosphatase non-receptor type 6 (Homo sapiens)
- Sequence (P29350 whole entry): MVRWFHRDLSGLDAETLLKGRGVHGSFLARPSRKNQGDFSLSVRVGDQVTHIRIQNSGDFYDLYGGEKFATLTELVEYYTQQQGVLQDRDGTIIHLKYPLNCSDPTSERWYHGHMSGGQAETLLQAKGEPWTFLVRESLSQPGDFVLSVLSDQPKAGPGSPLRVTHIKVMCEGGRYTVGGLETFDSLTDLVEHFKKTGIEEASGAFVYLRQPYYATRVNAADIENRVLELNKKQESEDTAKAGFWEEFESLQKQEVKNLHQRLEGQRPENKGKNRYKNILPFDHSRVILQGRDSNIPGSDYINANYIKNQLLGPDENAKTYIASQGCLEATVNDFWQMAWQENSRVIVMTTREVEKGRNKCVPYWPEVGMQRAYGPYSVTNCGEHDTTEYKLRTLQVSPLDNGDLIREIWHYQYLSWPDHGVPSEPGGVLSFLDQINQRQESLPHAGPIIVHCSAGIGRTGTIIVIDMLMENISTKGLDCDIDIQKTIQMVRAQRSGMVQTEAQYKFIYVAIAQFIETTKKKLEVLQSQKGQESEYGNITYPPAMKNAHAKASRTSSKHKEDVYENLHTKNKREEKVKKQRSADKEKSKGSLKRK
- experimentalDetails: Inhibition of wild type recombinant human SHP1 using H-Glu-Phe-pTyr-Ala-Glu-Val-Gly-Arg-Ser-Pro-Pro-Asp-Pro-Ala-Lys as substrate preincubated for 30 mins followed by substrate addition and measured after 30 mins by Malachite Green-reagent based assay
readoutType: IC50

Query block: Sample CCOc1cc(O)c(C(=O)/C=C/c2ccc(Cl)cc2Cl)cc1CN1CCC=C(n2c(=O)[nH]c3ccccc32)C1 — what was its IC50?
Result block: 72.7 µM

----------
- assayedTarget: UniProt:Q06124
- Sequence (Q06124 whole entry): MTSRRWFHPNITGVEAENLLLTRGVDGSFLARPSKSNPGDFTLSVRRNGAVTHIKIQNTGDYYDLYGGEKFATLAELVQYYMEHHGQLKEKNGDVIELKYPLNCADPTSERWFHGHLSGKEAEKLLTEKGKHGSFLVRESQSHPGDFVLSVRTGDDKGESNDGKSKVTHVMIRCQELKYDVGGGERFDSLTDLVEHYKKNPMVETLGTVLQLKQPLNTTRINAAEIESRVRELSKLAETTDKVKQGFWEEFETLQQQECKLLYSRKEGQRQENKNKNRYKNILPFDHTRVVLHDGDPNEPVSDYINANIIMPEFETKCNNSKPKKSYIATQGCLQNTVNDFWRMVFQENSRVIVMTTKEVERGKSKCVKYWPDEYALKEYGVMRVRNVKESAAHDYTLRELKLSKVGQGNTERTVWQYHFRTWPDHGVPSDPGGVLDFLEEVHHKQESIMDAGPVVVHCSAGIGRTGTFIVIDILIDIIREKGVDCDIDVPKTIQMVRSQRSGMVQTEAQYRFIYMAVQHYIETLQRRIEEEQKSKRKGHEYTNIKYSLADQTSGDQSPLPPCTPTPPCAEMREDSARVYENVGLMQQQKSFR
- experimentalDetails: Inhibition of wild type recombinant human SHP2 using H-Glu-Phe-pTyr-Ala-Glu-Val-Gly-Arg-Ser-Pro-Pro-Asp-Pro-Ala-Lys as substrate preincubated for 30 mins followed by substrate addition and measured after 30 mins by Malachite Green-reagent based assay
readoutType: pIC50
Please report pIC50 as the negative decimal logarithm of the molar concentration, giving only the number.

Query block: // lookup pIC50 for CCOc1cc(O)c(C(=O)/C=C/c2ccc(Cl)cc2Cl)cc1CN1CCC=C(n2c(=O)[nH]c3ccccc32)C1
Result block: 5.01
